System: K. pneumoniae No. 42
Experiment: in vitro antibacterial activity, agar plate dilution method (MIC)
Assay type: cell-based
Details: Klebsiella pneumoniae, NO.42, 16 h, read-out: Minimum Inhibitory Concentration (MIC), *K. pneumoniae No. 42, lactamase-producing strain; 10^6 CFU/ml
Readings of MIC for the listed compounds
Answer in µg/mL, number only, no unit symbol.

Sample records with MIC:
[[record]]
compound = "CC(C)(O/N=C(\\C(=O)N[C@@H]1C(=O)N2C(C(=O)O)=C(CSc3nc(-c4ccccc4)cs3)CS[C@H]12)c1csc(N)n1)C(=O)O [compound 11, reference compound]"
target_system = "K. pneumoniae No. 42"
observed_property = "MIC"
unit_label = "µg/mL"
test_result = 3.12

[[record]]
compound = "CO/N=C(\\C(=O)N[C@@H]1C(=O)N2C(C(=O)O)=C(CSc3nc(-c4ccc(O)cc4)cs3)CS[C@H]12)c1csc(N)n1 [compound 10, reference compound]"
target_system = "K. pneumoniae No. 42"
observed_property = "MIC"
unit_label = "µg/mL"
test_result = 1.56


# input for lookup
Entry Nc1nc(/C(=N/OC(C(=O)O)c2ccccc2)C(=O)N[C@@H]2C(=O)N3C(C(=O)O)=C(CSc4nnc(-c5ccc(O)c(O)c5)o4)CS[C@H]23)cs1 (stereo partly drawn) [Ex. 15] , MIC reported as 0.05

###

System: P. vulgaris No. 33
Test: in vitro antibacterial activity, agar plate dilution method (MIC)
Format: cell-based
Conditions: Proteus vulgaris, 16 h; *P. vulgaris No. 33, lactamase-producing strain; 10^6 CFU/ml; read-out: Minimum Inhibitory Concentration (MIC)
Where a name gives a salt, the structure may show the parent alone.
Readings of MIC for the listed molecules
Answer in mg/L, number only, no unit symbol.

[[record]]
molecule = "CO/N=C(\\C(=O)N[C@@H]1C(=O)N2C(C(=O)O)=C(CSc3nnc(-c4ccc(O)cc4)s3)CS[C@H]12)c1csc(N)n1 [compound 7, reference compound]"
unit_label = "mg/L"
test_result = 1.56

[[record]]
molecule = "CC(C)(O/N=C(\\C(=O)N[C@@H]1C(=O)N2C(C(=O)O)=C(CSc3nnc(-c4ccccc4)s3)CS[C@H]12)c1csc(N)n1)C(=O)O [compound 6, reference compound]"
unit_label = "mg/L"
test_result = 0.39


Entry CO/N=C(\C(=O)N[C@@H]1C(=O)N2C(C(=O)O)=C(CSc3nnc(-c4ccccc4)s3)CS[C@H]12)c1csc(N)n1 [compound 5, trifluoroacetate, reference compound] , MIC reported as 0.39

###

Test system: S. marcescens No. 16-2
Assay: in vitro antibacterial activity, agar plate dilution method (MIC)
Type: cell-based
Conditions: Serratia marcescens, NO.162, 16 h, read-out: Minimum Inhibitory Concentration (MIC), *S. marcescens No. 16-2, lactamase-producing strain; 10^6 CFU/ml
Readings of MIC for the listed compounds
Answer in µg/mL, number only, no unit symbol.

Sample records with MIC:
[[record]]
compound = "CC(C)ON=C(C(=O)NC1C(=O)N2C(C(=O)O)=C(CSc3nc(-c4ccc(O)c(O)c4)cs3)CSC12)c1csc(N)n1 (stereo not shown)"
observed_property = "MIC"
test_result = 6.25

[[record]]
compound = "Nc1nc(/C(=N/OC2(C(=O)O)CC2)C(=O)N[C@@H]2C(=O)N3C(C(=O)O)=C(CSc4nnc(-c5ccc(O)c(O)c5)o4)CS[C@H]23)cs1"
observed_property = "MIC"
test_result = 1.56

[[record]]
compound = "C=CCON=C(C(=O)NC1C(=O)N2C(C(=O)O)=C(CSc3nc(-c4ccc(O)c(O)c4)cs3)CSC12)c1csc(N)n1 (stereo not shown)"
observed_property = "MIC"
test_result = 6.25

[[record]]
compound = "CO/N=C(\\C(=O)N[C@@H]1C(=O)N2C(C(=O)O)=C(CSc3nnc(-c4ccc(O)c(O)c4)s3)CS[C@H]12)c1csc(N)n1"
observed_property = "MIC"
test_result = 1.56

[[record]]
compound = "Nc1nc(C(=NOCc2ccccc2)C(=O)NC2C(=O)N3C(C(=O)O)=C(CSc4nc(C(=O)O)c(-c5ccc(O)c(O)c5)s4)CSC23)cs1 (stereo not shown)"
observed_property = "MIC"
test_result = 6.25


Entry Nc1nc(/C(=N/OC(C(=O)O)c2ccccc2)C(=O)N[C@@H]2C(=O)N3C(C(=O)O)=C(CSc4nnc(-c5ccc(O)c(O)c5)o4)CS[C@H]23)cs1 (single isomer, unassigned) [Example 24 DA] , MIC reported as 0.78

Entry "Nc1nc(/C(=N/Oc2ccccc2)C(=O)N[C@@H]2C(=O)N3C(C(=O)O)=C(CSc4nnc(-c5ccc(O)c(O)c5)o4)CS[C@H]23)cs1" , MIC reported as 0.78

Entry CC(C)(ON=C(C(=O)NC1C(=O)N2C(C(=O)O)=C(CSc3nc(-c4ccc(O)c(O)c4)cs3)CSC12)c1csc(N)n1)C(=O)O (stereo not shown) , MIC reported as 1.56

Entry CC(C)(O/N=C(\C(=O)N[C@@H]1C(=O)N2C(C(=O)O)=C(CSc3nc(-c4ccccc4)cs3)CS[C@H]12)c1csc(N)n1)C(=O)O [compound 11, reference compound] , MIC reported as 6.25

Entry "CC(C)(O/N=C(\C(=O)N[C@@H]1C(=O)N2C(C(=O)O)=C(CSc3ncc(-c4ccc(O)c(O)c4)o3)CS[C@H]12)c1csc(N)n1)C(=O)O" , MIC reported as 1.56

###

System: A. calcoaceticus No. 4
Test: in vitro antibacterial activity, agar plate dilution method (MIC)
Format: cell-based, Acinetobacter calcoaceticus
Settings: Acinetobacter calcoaceticus, NO.4, 16 h, A. calcoaceticus No. 4; 10^6 CFU/ml; read-out: Minimum Inhibitory Concentration (MIC)
Where a name gives a salt, the structure may show the parent alone.
Labelling field: enter Y if recorded MIC is less than 20 mg/L. Enter N if it equals or exceeds that cut-off.

[[record]]
molecule = "CO/N=C(\\C(=O)N[C@@H]1C(=O)N2C(C(=O)O)=C(CSc3nc(-c4ccc(O)cc4)cs3)CS[C@H]12)c1csc(N)n1 [compound 10, reference compound]"
class_label = "N"

[[record]]
molecule = "CO/N=C(\\C(=O)N[C@@H]1C(=O)N2C(C(=O)O)=C(CSc3nc(-c4ccc(OC(C)=O)cc4)c(CC(=O)O)s3)CS[C@H]12)c1csc(N)n1 [compound 18, reference compound]"
class_label = "N"

[[record]]
molecule = "CC(C)(O/N=C(\\C(=O)N[C@@H]1C(=O)N2C(C(=O)O)=C(CSc3nnc(-c4ccc(O)c(O)c4)o3)CS[C@H]12)c1csc(N)n1)C(=O)O"
class_label = "Y"


Consider CO/N=C(\C(=O)N[C@@H]1C(=O)N2C(C(=O)O)=C(CSc3nnc(-c4ccccc4)o3)CS[C@H]12)c1csc(N)n1 [compound 1, trifluoroacetate, reference compound] . Does its MIC lie strictly below 20 mg/L?
N

Consider CO/N=C(\C(=O)N[C@@H]1C(=O)N2C(C(=O)O)=C(CSc3nnc(-c4ccccc4)s3)CS[C@H]12)c1csc(N)n1 [compound 5, trifluoroacetate, reference compound] . Does its MIC lie strictly below 20 mg/L?
Y

Consider Nc1nc(/C(=N/OC(C(=O)O)c2ccc(O)c(O)c2)C(=O)N[C@@H]2C(=O)N3C(C(=O)O)=C(CSc4ncc(-c5ccc(O)c(O)c5)o4)CS[C@H]23)cs1 (stereo partly drawn) . Does its MIC lie strictly below 20 mg/L?
Y

Consider CON=C(C(=O)NC1C(=O)N2C(C(=O)O)=C(CSc3ncc(-c4ccc(O)c(O)c4)o3)CSC12)c1csc(N)n1 (stereo not drawn) . Does its MIC lie strictly below 20 mg/L?
Y

Consider CO/N=C(\C(=O)N[C@@H]1C(=O)N2C(C(=O)O)=C(CSc3nc(-c4ccccc4)cs3)CS[C@H]12)c1csc(N)n1 [compound 9, reference compound] . Does its MIC lie strictly below 20 mg/L?
N

Consider Nc1nc(C(=NOC(C(=O)O)c2ccc(O)c(O)c2)C(=O)NC2C(=O)N3C(C(=O)O)=C(CSc4nnc(-c5ccc(O)c(O)c5)s4)CSC23)cs1 (single isomer, unassigned) . Does its MIC lie strictly below 20 mg/L?
Y

Consider CC(C)(O/N=C(\C(=O)N[C@@H]1C(=O)N2C(C(=O)O)=C(CSc3nnc(-c4ccccc4)o3)CS[C@H]12)c1csc(N)n1)C(=O)O [compound 3, reference compound] . Does its MIC lie strictly below 20 mg/L?
N

Consider CC(C)(O/N=C(\C(=O)N[C@@H]1C(=O)N2C(C(=O)O)=C(CSc3nnc(-c4ccc(O)cc4)o3)CS[C@H]12)c1csc(N)n1)C(=O)O [compound 4, reference compound] . Does its MIC lie strictly below 20 mg/L?
N

Consider "CC(C)(O/N=C(\C(=O)N[C@@H]1C(=O)N2C(C(=O)O)=C(CSc3nnc(-c4ccc(O)c(O)c4)s3)CS[C@H]12)c1csc(N)n1)C(=O)O" . Does its MIC lie strictly below 20 mg/L?
Y

Consider CO/N=C(\C(=O)N[C@@H]1C(=O)N2C(C(=O)O)=C(CSc3ncc(-c4ccc(O)cc4)o3)CS[C@H]12)c1csc(N)n1 [compound 23, reference compound] . Does its MIC lie strictly below 20 mg/L?
N

Consider "C=CCO/N=C(\C(=O)N[C@@H]1C(=O)N2C(C(=O)O)=C(CSc3nnc(-c4ccc(O)c(O)c4)s3)CS[C@H]12)c1csc(N)n1" . Does its MIC lie strictly below 20 mg/L?
Y

Consider CC(C)(O/N=C(\C(=O)N[C@@H]1C(=O)N2C(C(=O)O)=C(CSc3ncc(-c4ccccc4)o3)CS[C@H]12)c1csc(N)n1)C(=O)O [compound 22, reference compound] . Does its MIC lie strictly below 20 mg/L?
N

Consider CC(C)(O/N=C(\C(=O)N[C@@H]1C(=O)N2C(C(=O)O)=C(CSc3nnc(-c4ccccc4)s3)CS[C@H]12)c1csc(N)n1)C(=O)O [compound 6, reference compound] . Does its MIC lie strictly below 20 mg/L?
Y

Consider Nc1nc(C(=NOCC(=O)O)C(=O)NC2C(=O)N3C(C(=O)O)=C(CSc4nc(-c5ccc(O)c(O)c5)cs4)CSC23)cs1 (stereo not drawn) . Does its MIC lie strictly below 20 mg/L?
Y

Consider CO/N=C(\C(=O)N[C@@H]1C(=O)N2C(C(=O)O)=C(CSc3nc(-c4ccccc4)c(CC(=O)O)s3)CS[C@H]12)c1csc(N)n1 [compound 15, reference compound] . Does its MIC lie strictly below 20 mg/L?
N

Consider CC(C)(O/N=C(\C(=O)N[C@@H]1C(=O)N2C(C(=O)O)=C(CSc3nc(-c4ccccc4)c(CC(=O)O)s3)CS[C@H]12)c1csc(N)n1)C(=O)O [compound 16, reference compound] . Does its MIC lie strictly below 20 mg/L?
N

Consider Nc1nc(C(=NOC2CCCC2)C(=O)NC2C(=O)N3C(C(=O)O)=C(CSc4nc(C(=O)O)c(-c5ccc(O)c(O)c5)s4)CSC23)cs1 (stereo not drawn) . Does its MIC lie strictly below 20 mg/L?
Y

Consider Nc1nc(/C(=N/OC(C(=O)O)c2ccccc2)C(=O)N[C@@H]2C(=O)N3C(C(=O)O)=C(CSc4nnc(-c5ccc(O)c(O)c5)o4)CS[C@H]23)cs1 (single isomer, unassigned) [Example 24 DA] . Does its MIC lie strictly below 20 mg/L?
Y
